# maps each entry to its logD
measured metric: logD

compound=O=C(Nc1ccc2c(c1)CNC2)c1cc(Br)cc2[nH]c(-c3ccccc3)nc12 measured_metric=logD experimental_value=3.6
compound="O=C(NCC(F)F)[C@H](Nc1ccc2c(c1)CNC2)c1cc(Cl)cc2ccoc12 (racemic)" measured_metric=logD experimental_value=0.6
compound="Cn1ncc(-c2cc3c(N[C@H](c4ccc5c(n4)OCCO5)C(C)(C)C)ncnc3[nH]2)c1C#N (single isomer, unassigned)" measured_metric=logD experimental_value=3.3
compound=O=C(O)COc1cccc(NC(=O)c2cc(Cl)cc(NC(=O)OCc3ccccc3)c2)c1 measured_metric=logD experimental_value=1.8
compound="CCNC(=O)c1cc2c(N[C@H](c3ccc4c(c3)S(=O)(=O)CCC4)C(C)C)ncnc2[nH]1 (racemic)" measured_metric=logD experimental_value=2.8
compound="CC(C)[C@H](Nc1ncnc2[nH]c(-c3cnn(CC(N)=O)c3)cc12)c1ccc2c(c1)OCCO2 (racemic)" measured_metric=logD experimental_value=0.9
compound="CCNC(=O)c1cc2c(N[C@H](c3ccc4c(c3)OCCO4)C(C)C)ncnc2[nH]1 (racemic)" measured_metric=logD experimental_value=3
compound="COc1ccc([C@H](Cc2nnn[nH]2)NC(=O)c2ncnc3[nH]ccc23)cc1 (racemic)" measured_metric=logD experimental_value=-0.1
compound="CC(C)[C@H](Nc1ncnc2[nH]c(-c3cnn(CC(N)=O)c3)cc12)c1ccc2c(c1)S(=O)(=O)CCC2 (racemic)" measured_metric=logD experimental_value=1.9
compound="CC(C)NC(=O)[C@H](Nc1ccc2c(c1)CNC2)c1cc(Cl)cc2[nH]c(-c3ccccc3)nc12 (racemic)" measured_metric=logD experimental_value=2.9
compound="CC(C)[C@H](Nc1ncnc2[nH]c(-c3cnn(CC(=O)N(C)C)c3)cc12)c1ccc2c(c1)OCCO2 (racemic)" measured_metric=logD experimental_value=2.3
compound=O=C(Nc1ccc2c(c1)CNC2)c1cc(Cl)cc2cn[nH]c12 measured_metric=logD experimental_value=1.2
compound=O=C(Nc1cc(Br)c2c(c1)CNC2)c1cc(F)cc2[nH]ncc12 measured_metric=logD experimental_value=1.8
compound=O=C(Nc1ccc2c(c1)CNC2)c1cccc2[nH]c(C(F)(F)F)cc12 measured_metric=logD experimental_value=1.5
compound="CNC(=O)[C@H](Nc1cc(Cl)cc(NC(=O)OCc2ccccc2)c1)c1cccc(-c2nn[nH]n2)c1 (racemic)" measured_metric=logD experimental_value=2.2
compound="N#C[C@H](Nc1cccc(C(=O)O)c1)c1cc(Cl)cc2[nH]ncc12 (racemic)" measured_metric=logD experimental_value=0.6
compound=O=C(Nc1cc2c(c(C3=CCS(=O)(=O)CC3)c1)CNC2)c1cc(F)cc2[nH]ncc12 measured_metric=logD experimental_value=-0.1
compound=NCCc1ccc(NC(=O)c2cc(Cl)cc(NC(=O)OCc3ccccc3)c2)cc1 measured_metric=logD experimental_value=2.9
